Tested on: DU145 cells
Assay: WST-1 cell proliferation assay, DU145
Type: cell-based, human
Details: fold potency relative to silibinin
Experimental: The in vitro antiproliferative activities of six 7-O-substituted and 26 3-O-substituted silybin derivatives were evaluated using the WST-1 cell proliferation assay, according to the procedure as described in the Experimental Section in both androgen-sensitive (LNCaP) and androgen-insensitive (PC-3 and DU145) human prostate cancer cell lines. […]
Entries and their IC50 (Silibinin)/IC50(Derivative) DU145
Please give only the number in your answer, with no unit.

(Q) // IC50 (Silibinin)/IC50(Derivative) DU145 lookup, key: COc1cc(OC)c2c(=O)c(OCCCCCN3CCNCC3)c(-c3ccc4c(c3)OC(c3ccc(OC)c(OC)c3)C(CO)O4)oc2c1 (stereo not shown)
(A) 2

(Q) // IC50 (Silibinin)/IC50(Derivative) DU145 lookup, key: CCCOc1c(-c2ccc3c(c2)OC(c2ccc(O)c(OC)c2)C(CO)O3)oc2cc(O)cc(O)c2c1=O (stereo not shown) [Compound 4, 3-O-propyl-2,3-dehydrosilybin, reference compound]
(A) 8

---

Entries and their IC50 (Silibinin)/IC50(Derivative) DU145
test system: DU145 cells; test: WST-1 cell proliferation assay, DU145; type: cell-based, human; details: fold potency relative to silibinin
Please give only the number in your answer, with no unit.

Example cases with answers are listed next.
COc1ccc(C2Oc3cc(-c4oc5cc(OCCCBr)cc(OC)c5c(=O)c4OC)ccc3OC2CO)cc1OC (stereo not shown) [Compound 8] ... 8
CCN(CC)CCCOc1cc(OC)c2c(=O)c(OC)c(-c3ccc4c(c3)OC(c3ccc(OC)c(OC)c3)C(CO)O4)oc2c1 (stereo not shown) [Compound 10] ... 11
COc1cc(OC)c2c(=O)c(OCCCCCN3CCN(C)CC3)c(-c3ccc4c(c3)OC(c3ccc(OC)c(OC)c3)C(CO)O4)oc2c1 (stereo not shown) [Compound 45] ... 11

(Q) // IC50 (Silibinin)/IC50(Derivative) DU145 lookup, key: CCN(CC)CCCOc1c(-c2ccc3c(c2)OC(c2ccc(OC)c(OC)c2)C(CO)O3)oc2cc(OC)cc(OC)c2c1=O (stereo not shown) [Compound 23]
(A) 10

---

Entries and their PC-3 cell population in G0/G1 phase
test system: PC-3 cells; assay: Cell cycle analysis by flow cytometry (propidium iodide); assay type: cell-based, human; conditions: 20 µM, 16 h; controls 55.7% (11), 36.2% (29), 33.1% (31, 37, 40)
Dear colleague, please return just the value in %, with no unit written.

COc1cc(OC)c2c(=O)c(OCCCCCN3CCCCC3)c(-c3ccc4c(c3)OC(c3ccc(OC)c(OC)c3)C(CO)O4)oc2c1 (centres unmarked) [Compound 37] ... 34.6

(Q) // PC-3 cell population in G0/G1 phase lookup, key: CCCCN(CCCC)CCCOc1c(-c2ccc3c(c2)OC(c2ccc(OC)c(OC)c2)C(CO)O3)oc2cc(OC)cc(OC)c2c1=O (centres unmarked) [Compound 29]
(A) 50.3

(Q) // PC-3 cell population in G0/G1 phase lookup, key: CCCCN(CCCC)CCCCCOc1c(-c2ccc3c(c2)OC(c2ccc(OC)c(OC)c2)C(CO)O3)oc2cc(OC)cc(OC)c2c1=O (centres unmarked) [Compound 31]
(A) 35.9

(Q) // PC-3 cell population in G0/G1 phase lookup, key: CCCN(CCC)CCCOc1cc(OC)c2c(=O)c(OC)c(-c3ccc4c(c3)OC(c3ccc(OC)c(OC)c3)C(CO)O4)oc2c1 (centres unmarked) [Compound 11]
(A) 66.3

(Q) // PC-3 cell population in G0/G1 phase lookup, key: COc1cc(OC)c2c(=O)c(OCCCCCN3CCOCC3)c(-c3ccc4c(c3)OC(c3ccc(OC)c(OC)c3)C(CO)O4)oc2c1 (centres unmarked) [Compound 40]
(A) 43.4

---

test system: DU145 cells; experiment: WST-1 cell proliferation assay, DU145; assay type: cell-based, human; conditions: fold potency relative to silibinin
assay readout: IC50 (Silibinin)/IC50(Derivative) DU145
Please give only the number in your answer, with no unit.

COc1cc(OC)c2c(=O)c(OCCCCN3CCCC3)c(-c3ccc4c(c3)OC(c3ccc(OC)c(OC)c3)C(CO)O4)oc2c1 (stereo not drawn) ... 5

Next up:
(Q) Form field: IC50 (Silibinin)/IC50(Derivative) DU145 recorded for COc1cc(OC)c2c(=O)c(OCCCN3CCCC3)c(-c3ccc4c(c3)OC(c3ccc(OC)c(OC)c3)C(CO)O4)oc2c1 (stereo not drawn) with DU145 cells (enter value)
(A) 7

---

Entries and their IC50 (Silibinin)/IC50(Derivative) DU145
system: DU145 cells; experiment: WST-1 cell proliferation assay, DU145; type: cell-based, human; details: fold potency relative to silibinin
Please give only the number in your answer, with no unit.

(Q) Form field: IC50 (Silibinin)/IC50(Derivative) DU145 recorded for COc1cc(OC)c2c(=O)c(OCCCN3CCN(C)CC3)c(-c3ccc4c(c3)OC(c3ccc(OC)c(OC)c3)C(CO)O4)oc2c1 (stereo not shown) [Compound 44] with DU145 cells (enter value)
(A) 5

(Q) Form field: IC50 (Silibinin)/IC50(Derivative) DU145 recorded for COc1cc(OC)c2c(=O)c(OCCCN3CCCCC3)c(-c3ccc4c(c3)OC(c3ccc(OC)c(OC)c3)C(CO)O4)oc2c1 (stereo not shown) [Compound 35] with DU145 cells (enter value)
(A) 13

---

test system: DU145 cells; assay: WST-1 cell proliferation assay, DU145; assay type: cell-based, human; conditions: fold potency relative to silibinin
assay readout: IC50 (Silibinin)/IC50(Derivative) DU145
Please give only the number in your answer, with no unit.

Example cases with answers are listed next.
CCCCN(CCCC)CCCCOc1c(-c2ccc3c(c2)OC(c2ccc(OC)c(OC)c2)C(CO)O3)oc2cc(OC)cc(OC)c2c1=O (stereo not drawn) ... 30
COc1cc(OC)c2c(=O)c(OCCCCN(C)C)c(-c3ccc4c(c3)OC(c3ccc(OC)c(OC)c3)C(CO)O4)oc2c1 (stereo not drawn) ... 9
CCN(CC)CCCCOc1c(-c2ccc3c(c2)OC(c2ccc(OC)c(OC)c2)C(CO)O3)oc2cc(OC)cc(OC)c2c1=O (stereo not drawn) ... 8
CCCN(CCC)CCCCOc1c(-c2ccc3c(c2)OC(c2ccc(OC)c(OC)c2)C(CO)O3)oc2cc(OC)cc(OC)c2c1=O (stereo not drawn) ... 17

(Q) // IC50 (Silibinin)/IC50(Derivative) DU145 lookup, key: COc1cc(OC)c2c(=O)c(OCCCCN3CCNCC3)c(-c3ccc4c(c3)OC(c3ccc(OC)c(OC)c3)C(CO)O4)oc2c1 (stereo not drawn)
(A) 14

(Q) // IC50 (Silibinin)/IC50(Derivative) DU145 lookup, key: CCOc1cc(O)c2c(=O)c(O)c(-c3ccc4c(c3)OC(c3ccc(O)c(OC)c3)C(CO)O4)oc2c1 (stereo not drawn) [Compound 3, 7-O-ethyl-2,3-dehydrosilybin, reference compound]
(A) 12

---

test system: DU145 cells; experiment: WST-1 cell proliferation assay, DU145; type: cell-based, human; settings: fold potency relative to silibinin
Entries and their IC50 (Silibinin)/IC50(Derivative) DU145
Please give only the number in your answer, with no unit.

(Q) // IC50 (Silibinin)/IC50(Derivative) DU145 lookup, key: COc1cc(OC)c2c(=O)c(OCCCCCN(C)C)c(-c3ccc4c(c3)OC(c3ccc(OC)c(OC)c3)C(CO)O4)oc2c1 (centres unmarked) [Compound 22]
(A) 14

(Q) // IC50 (Silibinin)/IC50(Derivative) DU145 lookup, key: COc1cc(OC)c2c(=O)c(OCCCN(C)C)c(-c3ccc4c(c3)OC(c3ccc(OC)c(OC)c3)C(CO)O4)oc2c1 (centres unmarked) [Compound 20]
(A) 3

(Q) // IC50 (Silibinin)/IC50(Derivative) DU145 lookup, key: CCCN(CCC)CCCCCOc1c(-c2ccc3c(c2)OC(c2ccc(OC)c(OC)c2)C(CO)O3)oc2cc(OC)cc(OC)c2c1=O (centres unmarked) [Compound 28]
(A) 16

(Q) // IC50 (Silibinin)/IC50(Derivative) DU145 lookup, key: COc1cc(OC)c2c(=O)c(OCCCCCN3CCCC3)c(-c3ccc4c(c3)OC(c3ccc(OC)c(OC)c3)C(CO)O4)oc2c1 (centres unmarked) [Compound 34]
(A) 16

(Q) // IC50 (Silibinin)/IC50(Derivative) DU145 lookup, key: COc1cc(C2Oc3cc(-c4oc5cc(O)cc(O)c5c(=O)c4O)ccc3OC2CO)ccc1O (centres unmarked) [Compound 2, 2,3-dehydrosilybin]
(A) 8

---

tested on: DU145 cells; test: WST-1 cell proliferation assay, DU145; assay type: cell-based, human; conditions: fold potency relative to silibinin
Entries and their IC50 (Silibinin)/IC50(Derivative) DU145
Please give only the number in your answer, with no unit.

Example cases with answers are listed next.
COc1ccc(C2Oc3cc(-c4oc5cc(OCCCN6CCN(C)CC6)cc(OC)c5c(=O)c4OC)ccc3OC2CO)cc1OC (centres unmarked) ... 5
CCCN(CCC)CCCOc1c(-c2ccc3c(c2)OC(c2ccc(OC)c(OC)c2)C(CO)O3)oc2cc(OC)cc(OC)c2c1=O (centres unmarked) ... 11
CNCCCOc1cc(OC)c2c(=O)c(OC)c(-c3ccc4c(c3)OC(c3ccc(OC)c(OC)c3)C(CO)O4)oc2c1 (centres unmarked) ... 2
COc1cc(OC)c2c(=O)c(OCCCCCBr)c(-c3ccc4c(c3)OC(c3ccc(OC)c(OC)c3)C(CO)O4)oc2c1 (centres unmarked) ... 11

Next up:
(Q) // IC50 (Silibinin)/IC50(Derivative) DU145 lookup, key: COc1ccc(C2Oc3cc(-c4oc5cc(OCCCN6CCCC6)cc(OC)c5c(=O)c4OC)ccc3OC2CO)cc1OC (centres unmarked)
(A) 5
